Collected MIC values appear next to each entry.
# Test system: E. coli JR 35/C600
# experimentSummary: MIC, two-fold agar dilution on Nutrient Agar
# Format: cell-based
# statedConditions: Escherichia coli, JR35/C600
reportedMetric: MIC (µg/mL)

[
  {
    "compound": "CCC(=O)NC1C(CO)OC(OC(C(O)CN)C(N)C(O)CO)C(O)C1O (stereo not shown)",
    "testedSystem": "E. coli JR 35/C600",
    "reportedMetric": "MIC",
    "measuredValue": 6.3
  },
  {
    "compound": "CC(=O)NC1C(CO)OC(OC(C(O)CN)C(N)C(O)CO)C(O)C1O (stereo not shown)",
    "testedSystem": "E. coli JR 35/C600",
    "reportedMetric": "MIC",
    "measuredValue": 12.5
  },
  {
    "compound": "NC[C@H]1O[C@H](O[C@H]2[C@H](O)[C@@H](O[C@H]3O[C@H](CO)[C@@H](O)[C@H](N)[C@H]3O)[C@H](N)C[C@@H]2N)[C@H](O)[C@@H](O)[C@@H]1O [Kanamycin A, reference compound]",
    "testedSystem": "E. coli JR 35/C600",
    "reportedMetric": "MIC",
    "measuredValue": 12.5
  },
  {
    "compound": "CCCC(=O)NC1C(CO)OC(OC(C(O)CN)C(N)C(O)CO)C(O)C1O (stereo not shown)",
    "testedSystem": "E. coli JR 35/C600",
    "reportedMetric": "MIC",
    "measuredValue": 6.3
  }
]
